B1: VH:VL chains; a variant is named by its letters at X, in order (parent)
chain 1: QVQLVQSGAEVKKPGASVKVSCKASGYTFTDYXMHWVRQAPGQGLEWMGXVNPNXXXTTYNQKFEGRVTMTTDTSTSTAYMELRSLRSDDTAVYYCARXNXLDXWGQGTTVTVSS
chain 2: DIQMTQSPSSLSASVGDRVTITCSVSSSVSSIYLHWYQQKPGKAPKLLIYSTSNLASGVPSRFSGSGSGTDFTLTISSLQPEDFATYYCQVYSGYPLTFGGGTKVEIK

variants of: B1; experiment: yeast display scFab, FACS + sequencing
Experimental Readout: non-specific binding call

// solved cases for non-specific binding call follow
VTGGDSWF
no binding
YRAGDSGY
no binding
FRTRDSGY chain 1 V68I
binds
VAREDDLS
no binding
VRAGAFSV
no binding
AGGGNAGD
no binding

We now examine a further variant.
Input: # lookup: non-specific binding call of FAGTGSWD
Output: no binding
